- MEASURED ON: phosphorylated BTK Y223 in NIH/3T3 BTK C481S cells (Homo sapiens, UniProt Q06187, C481S)
- Sequence (Q06187 whole entry C481S): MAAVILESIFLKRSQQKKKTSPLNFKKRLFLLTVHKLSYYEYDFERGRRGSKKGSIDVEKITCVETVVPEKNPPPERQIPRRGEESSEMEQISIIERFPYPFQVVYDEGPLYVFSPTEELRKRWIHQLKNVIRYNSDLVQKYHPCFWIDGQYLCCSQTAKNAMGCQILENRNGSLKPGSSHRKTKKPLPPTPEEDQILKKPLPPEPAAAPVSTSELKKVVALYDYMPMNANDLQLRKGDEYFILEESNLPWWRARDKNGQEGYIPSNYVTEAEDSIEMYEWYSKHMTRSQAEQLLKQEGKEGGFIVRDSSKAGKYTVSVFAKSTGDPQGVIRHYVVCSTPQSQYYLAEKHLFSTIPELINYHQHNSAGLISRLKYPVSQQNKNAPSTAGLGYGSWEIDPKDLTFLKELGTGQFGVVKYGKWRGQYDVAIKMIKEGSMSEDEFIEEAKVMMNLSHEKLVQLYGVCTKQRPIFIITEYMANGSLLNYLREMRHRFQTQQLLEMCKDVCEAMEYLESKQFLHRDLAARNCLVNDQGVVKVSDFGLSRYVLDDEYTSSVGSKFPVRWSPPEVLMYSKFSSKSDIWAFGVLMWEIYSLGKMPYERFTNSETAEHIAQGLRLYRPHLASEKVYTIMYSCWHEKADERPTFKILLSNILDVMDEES
- PROCEDURE SUMMARY: Phosphor-BTK(Y223) assay, NIH/3T3 BTK C481S cells
- TEST SETTINGS: phosphorylated BTK Y223, NIH/3T3 BTK C481S cells; read-out: NIH/3T3 BTK-C481S pBTK IC50
pIC50: −log10 of the molar value.
pIC50: recorded values

The examples below pair each entry with its known result.
COc1ccc(F)cc1C(=O)NCc1ccc(-c2nn([C@H]3CC[C@@H](O)CC3)c3ncnc(N)c23)cc1 :: ≥ 7.60
COc1ccc(F)cc1C(=O)NCc1ccc(-c2nn(C3CCC(CO)OC3)c3ncnc(N)c23)cc1 (single isomer, unassigned) [Example 19] :: 7.00 to 7.30
COc1ccc(F)cc1C(=O)NCc1ccc(-c2nn(C3CCC(O)C3)c3ncnc(N)c23)cc1 (single isomer, unassigned) [Example 31] :: ≥ 7.60

Problem: Specify reported pIC50 for the compound shown: COc1ccc(F)cc1C(=O)NCc1ccc(-c2nn([C@H]3CCC[C@H](O)C3)c3ncnc(N)c23)cc1 (racemic)
Result: ≥ 7.60

Problem: # return recorded pIC50 for entry COc1ccc(F)cc1C(=O)NCc1ccc(-c2cc(C3CCC(CO)OC3)n3ncnc(N)c23)cc1 (single isomer, unassigned) [Example 61]
Result: 7.30 to 7.60
